# targetOfAssay: human CD33 A341S (human, UniProt P20138 18-364)
# Sequence (P20138 18-364 A341S limits assumed): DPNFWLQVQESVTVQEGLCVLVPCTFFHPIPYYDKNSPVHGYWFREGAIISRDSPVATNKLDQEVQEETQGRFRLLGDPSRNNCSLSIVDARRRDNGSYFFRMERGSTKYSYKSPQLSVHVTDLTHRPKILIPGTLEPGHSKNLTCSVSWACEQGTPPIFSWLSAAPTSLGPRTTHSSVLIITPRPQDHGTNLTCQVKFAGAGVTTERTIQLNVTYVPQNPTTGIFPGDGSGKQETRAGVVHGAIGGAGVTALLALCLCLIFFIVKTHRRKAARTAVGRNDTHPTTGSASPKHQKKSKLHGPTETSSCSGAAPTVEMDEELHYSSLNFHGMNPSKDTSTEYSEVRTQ
# protocolDetails: flow cytometry, alanine scan
measuredMetric: Mean % WT Binding

As a guide, the following entries are already answered.
Refmab #3 (antibody, V domains shown, The alanine scan used IgG or Fab) VH: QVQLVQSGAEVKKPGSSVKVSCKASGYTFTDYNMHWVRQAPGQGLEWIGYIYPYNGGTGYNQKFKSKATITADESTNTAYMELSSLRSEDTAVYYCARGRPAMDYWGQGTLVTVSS VL: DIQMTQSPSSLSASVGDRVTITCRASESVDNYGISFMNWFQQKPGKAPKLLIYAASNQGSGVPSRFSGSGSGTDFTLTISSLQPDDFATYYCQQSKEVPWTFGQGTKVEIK
138 % of WT
Refmab #2 (antibody, V domains shown, The alanine scan used IgG or Fab) VH: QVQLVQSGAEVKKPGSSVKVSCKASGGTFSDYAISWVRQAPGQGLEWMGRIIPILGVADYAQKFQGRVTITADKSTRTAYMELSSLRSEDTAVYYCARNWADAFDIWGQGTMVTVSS VL: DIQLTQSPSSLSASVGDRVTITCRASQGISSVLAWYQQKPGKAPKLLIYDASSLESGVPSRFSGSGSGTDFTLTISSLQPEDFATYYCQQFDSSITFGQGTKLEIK
116 % of WT
Refmab #1 (antibody, V domains shown, The alanine scan used IgG or Fab; also called hP67.6) VH: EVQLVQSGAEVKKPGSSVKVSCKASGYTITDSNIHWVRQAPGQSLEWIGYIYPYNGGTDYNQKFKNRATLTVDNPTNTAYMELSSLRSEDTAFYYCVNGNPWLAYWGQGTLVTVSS VL: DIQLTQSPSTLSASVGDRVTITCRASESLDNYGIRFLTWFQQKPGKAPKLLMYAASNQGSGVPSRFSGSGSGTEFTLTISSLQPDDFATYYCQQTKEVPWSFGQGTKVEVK
86.8 % of WT

We now examine a further binder.
input: Give reported Mean % WT Binding value for Refmab #4 (antibody, V domains shown, The alanine scan used IgG or Fab) VH: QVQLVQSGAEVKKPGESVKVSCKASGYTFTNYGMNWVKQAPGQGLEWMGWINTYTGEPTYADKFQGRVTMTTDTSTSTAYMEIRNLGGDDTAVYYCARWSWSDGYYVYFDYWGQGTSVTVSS VL: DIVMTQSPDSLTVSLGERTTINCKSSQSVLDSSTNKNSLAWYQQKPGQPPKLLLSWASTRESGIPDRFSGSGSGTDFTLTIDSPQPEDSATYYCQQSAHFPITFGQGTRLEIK
output: 104 % of WT

Cited source: patent US20260242735A1
